Recorded protein stability index values for a group of variants are listed next.
B1: RHOBTB3 (parent)
chain: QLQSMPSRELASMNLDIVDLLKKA

Variants of: B1
assay_comment: protein stability index of a GFP-peptide fusion (GPS, HEK-293T) (PSI 1-6); higher = more stable;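 note: lentivirally expressed fusions sorted by FACS into six bins by GFP to DsRed ratio, PSI derived from sequencing read proportions per bin multiplied by bin number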
details: c terminus: a fixed tail appended
Reply with the value as a number alone.

Solved entries (count: 3):
| sequence_input | result_value |
| --- | --- |
| QLQSMPSRELASMRLDIVDLLKKA [N14R] | 2.58 |
| QLQSMPSRELASMNHDIVDLLKKA [L15H] | 3.98 |
| QLQSMPSRELASKNLDIVDLLKKA [M13K] | 3.8 |

Query :: Give its protein stability index value. Item: QLQSMPSRELASMNLDKVDLLKKA [I17K]
Result :: 3.23

Query :: Entry to check: QLQSHPSRELASMNLDIVDLLKKA [M5H]
Result :: 3.43

Query :: Entry to check: QLQSMPSRELASMNLDIIDLLKKA [V18I]
Result :: 3.28

Query :: Entry to check: FLQSMPSRELASMNLDIVDLLKKA [Q1F]
Result :: 2.95

Query :: Entry to check: QLQSMPSRELASMNLDIVHLLKKA [D19H]
Result :: 2.93

Query :: Entry to check: QLQSMPSRELASMNLDIVRLLKKA [D19R]
Result :: 2.99

Query :: Entry to check: QLQSMPSRELASMKLDIVDLLKKA [N14K]
Result :: 3.75
